Where a name gives a salt, the structure may show the parent alone.
Observed Compound Myofibroblast Cytotoxicity Activity for hDMFa myofibroblast cells, reported per entry below.
measurement kind: Compound Myofibroblast Cytotoxicity Activity

COc1cc2/c(=N/c3ccc(Br)cc3F)nc[nH]c2cc1OCC1CCN(C)CC1 [Cmpd 994, Vandetanib (ZD6474)] | ++++
COc1ccc(OC)c(C(O)CNC(=O)CN)c1 (stereo not shown) [Cmpd 673, Midodrine (hydrochloride)] | ++++
CCCCCCCCCCCCCCCC(=O)OC | +++
OCc1cc([C@@H](O)CNCCCCCCOCCOCc2c(Cl)cccc2Cl)ccc1O [Cmpd 1001, Vilanterol trifenatate] | +++

====

tested on: hDMFa myofibroblast cells
Structures can show the parent of a compound that is named as a salt.
measurement kind: Compound Myofibroblast Cytotoxicity Activity

# annotated cases, reported Compound Myofibroblast Cytotoxicity Activity shown
CCN(CC)CC(=O)Nc1c(C)cccc1C.Cl.O [Cmpd 589, Lidocaine hydrochloride monohydrate] | ++
O=C1Cc2cc(CCN3CCN(c4nsc5ccccc45)CC3)c(Cl)cc2N1 [Cmpd 1029, Ziprasidone HCl] | ++
Oc1c(Br)cc(Br)c2cccnc12 | +++
CO[C@H]1/C=C/O[C@@]2(C)Oc3c(C)c(O)c4c(O)c(cc(O)c4c3C2=O)NC(=O)/C(C)=C\C=C\[C@H](C)[C@H](O)[C@@H](C)[C@@H](O)[C@@H](C)[C@H](OC(C)=O)[C@@H]1C [Cmpd 833, Rifamycin sodium salt] | ++
CN(C)[C@@H]1C(O)=C(C(N)=O)C(=O)[C@@]2(O)C(O)=C3C(=O)c4c(O)ccc(Cl)c4[C@@](C)(O)[C@H]3C[C@@H]12 [Cmpd 256, Chlortetracycline HCl] | ++

The record that follows has no Compound Myofibroblast Cytotoxicity Activity shown yet.
Lookup: Compound Myofibroblast Cytotoxicity Activity / hDMFa myofibroblast cells / COc1cc(C(=O)NCc2ccc(OCCN(C)C)cc2)cc(OC)c1OC.Cl [Cmpd 974, Trimethobenzamide hydrochloride] ++

====

test system: hDMFa myofibroblast cells
Counter-ions that a name gives are not always drawn.
measurement kind: Compound Myofibroblast Cytotoxicity Activity

# annotated cases, reported Compound Myofibroblast Cytotoxicity Activity shown
CNCCC=C1c2ccccc2CCc2ccccc21 [Cmpd 723, Nortriptyline (hydrochloride)] | ++
CN(C)CCCN1c2ccccc2CCc2ccc(Cl)cc21 [Cmpd 285, Clomipramine HCl] | ++
COc1cc2nccc(Oc3ccc(NC(=O)C4(C(=O)Nc5ccc(F)cc5)CC4)cc3)c2cc1OC.O=C(O)C[C@H](O)C(=O)O [Cmpd 199, Cabozantinib malate (XL184)] | ++
Cc1nnc(SCC2=C(C(=O)O)N3C(=O)[C@@H](NC(=O)Cn4cnnn4)[C@H]3SC2)s1 [Cmpd 228, Cefazolin (sodium salt)] | +++
OCc1cc(C(O)CNCCCCCCOCCCCc2ccccc2)ccc1O (stereo not shown) [Cmpd 849, Salmeterol xinafoate] | +++
CC(=O)Oc1cc2c(s1)CCN(C(C(=O)C1CC1)c1ccccc1F)C2.Cl (stereo not shown) [Cmpd 794, Prasugrel hydrochloride] | ++

The record that follows has no Compound Myofibroblast Cytotoxicity Activity shown yet.
Lookup: Compound Myofibroblast Cytotoxicity Activity / hDMFa myofibroblast cells / CSc1ccc2c(c1)N(CCC1CCCCN1C)c1ccccc1S2 (stereo not shown) [Cmpd 940, Thioridazine HCl] ++++

====

tested on: hDMFa myofibroblast cells
Counter-ions that a name gives are not always drawn.
measurement kind: Compound Myofibroblast Cytotoxicity Activity

# annotated cases, reported Compound Myofibroblast Cytotoxicity Activity shown
CCC(C)(C)c1ccc(CC(C)CN2C[C@@H](C)O[C@@H](C)C2)cc1 (stereo partly drawn) [Cmpd 113, Amorolfine HCl] | +++
CO[C@@]1(NC(=O)Cc2cccs2)C(=O)N2C(C(=O)O)=C(COC(N)=O)CS[C@@H]21 [Cmpd 234, Cefoxitin (sodium salt)] | +++++
C/C=C/c1cc(OC)c(OC)cc1OC | ++
O=C(O)CC(O)(CC(=O)O)C(=O)O | ++++
CC1(C)CCC(c2ccc(Cl)cc2)=C(CN2CCN(c3ccc(C(=O)NS(=O)(=O)c4ccc(N[C@H](CCN5CCOCC5)CSc5ccccc5)c(S(=O)(=O)C(F)(F)F)c4)cc3)CC2)C1 | +++++
C[C@H]1c2cccc(O)c2C(=O)C2=C(O)[C@]3(O)C(=O)C(C(N)=O)=C(O)[C@@H](N(C)C)[C@@H]3[C@@H](O)[C@@H]21 [Cmpd 388, Doxycycline HCl] | ++
COC(=O)c1ccccc1O [Cmpd 659, Methyl salicylate] | ++
N=C(N)c1ccc(OCCCCCOc2ccc(C(=N)N)cc2)cc1.O=S(=O)(O)CCO.O=S(=O)(O)CCO [Cmpd 768, Pentamidine isethionate] | +++
CCCCCCCC/C=C\CCCCCCCC(=O)O | +++
CCCc1nc(C)c2c(=O)[nH]c(-c3cc(S(=O)(=O)N4CCN(CC)CC4)ccc3OCC)nn12 | ++++

Dear colleague, I am looking for the recorded Compound Myofibroblast Cytotoxicity Activity of the following molecule: N[C@@H](CCC(=O)N[C@@H](CS)C(=O)NCC(=O)O)C(=O)O ++++

Dear colleague, I am looking for the recorded Compound Myofibroblast Cytotoxicity Activity of the following molecule: Cc1ccc(-n2nc(C(C)(C)C)cc2NC(=O)Nc2ccc(OCCN3CCOCC3)c3ccccc23)cc1 ++

Dear colleague, I am looking for the recorded Compound Myofibroblast Cytotoxicity Activity of the following molecule: C[C@H](CCC(=O)O)[C@H]1CC[C@H]2[C@@H]3[C@H](O)C[C@@H]4C[C@H](O)CC[C@]4(C)[C@H]3CC[C@]12C +++

Dear colleague, I am looking for the recorded Compound Myofibroblast Cytotoxicity Activity of the following molecule: Oc1c(I)cc(Cl)c2cccnc12 ++

Dear colleague, I am looking for the recorded Compound Myofibroblast Cytotoxicity Activity of the following molecule: NCc1ccc(S(N)(=O)=O)cc1 [Cmpd 626, Mafenide Acetate] ++++

Dear colleague, I am looking for the recorded Compound Myofibroblast Cytotoxicity Activity of the following molecule: CCOC(=O)C1=C(COCCN)NC(C)=C(C(=O)OC)C1c1ccccc1Cl (stereo not drawn) [Cmpd 111, Amlodipine Besylate] ++++

Dear colleague, I am looking for the recorded Compound Myofibroblast Cytotoxicity Activity of the following molecule: CCCC(CCC)C(=O)O +++

Dear colleague, I am looking for the recorded Compound Myofibroblast Cytotoxicity Activity of the following molecule: CC(C)(S)[C@@H](N)C(=O)O ++

Dear colleague, I am looking for the recorded Compound Myofibroblast Cytotoxicity Activity of the following molecule: Oc1cccc2cccnc12 [Cmpd 74, 8-Hydroxyquinoline] ++

Dear colleague, I am looking for the recorded Compound Myofibroblast Cytotoxicity Activity of the following molecule: CN[C@@H]1[C@H](O)[C@H](NC)[C@H]2O[C@@]3(O)C(=O)C[C@@H](C)O[C@H]3O[C@@H]2[C@H]1O [Cmpd 885, Spectinomycin (hydrochloride hydrate)] +++

Dear colleague, I am looking for the recorded Compound Myofibroblast Cytotoxicity Activity of the following molecule: CC(=O)O[C@H]1C[C@@]2(C)[C@@H](C[C@@H](O)[C@H]3[C@@]4(C)CC[C@@H](O)[C@@H](C)[C@@H]4CC[C@@]32C)/C1=C(\CCC=C(C)C)C(=O)O [Cmpd 477, Fusidic Acid (sodium salt)] +++

Dear colleague, I am looking for the recorded Compound Myofibroblast Cytotoxicity Activity of the following molecule: COc1ccc([C@@H]2CC(=O)c3c(O)cc(O[C@@H]4O[C@H](CO)[C@@H](O)[C@H](O)[C@H]4O[C@@H]4O[C@@H](C)[C@H](O)[C@@H](O)[C@H]4O)cc3O2)cc1O ++

Dear colleague, I am looking for the recorded Compound Myofibroblast Cytotoxicity Activity of the following molecule: CO/N=C(\C(=O)N[C@@H]1C(=O)N2C(C(=O)O)=C(COC(C)=O)CS[C@H]12)c1csc(N)n1 [Cmpd 233, Cefotaxime (sodium salt)] +++

====

Where a name gives a salt, the structure may show the parent alone.
Observed Compound Myofibroblast Cytotoxicity Activity for hDMFa myofibroblast cells, reported per entry below.

# annotated cases, reported Compound Myofibroblast Cytotoxicity Activity shown
CC(C)(C)NCC(O)COc1cccc2c1CCC(=O)N2 (centres unmarked) [Cmpd 219, Carteolol HCl] | ++
Oc1ccc(Cl)cc1Cc1cc(Cl)ccc1O | +++++
Clc1ccc(COC(Cn2ccnc2)c2ccc(Cl)cc2Cl)c(Cl)c1 (centres unmarked) [Cmpd 672, Miconazole Nitrate] | +++
Nc1ccc(C(=O)O)c(O)c1 | ++

Dear colleague, I am looking for the recorded Compound Myofibroblast Cytotoxicity Activity of the following compound: O=C(c1ccccc1)c1ccccc1 ++

Dear colleague, I am looking for the recorded Compound Myofibroblast Cytotoxicity Activity of the following compound: CC(=O)O.Cc1cc2c(C(C)C)c(O)c(O)c(C=O)c2c(O)c1-c1c(C)cc2c(C(C)C)c(O)c(O)c(C=O)c2c1O [Cmpd 80, Acetate gossypol] +++++

Dear colleague, I am looking for the recorded Compound Myofibroblast Cytotoxicity Activity of the following compound: CC(C)[C@H](N)C(=O)O ++

Dear colleague, I am looking for the recorded Compound Myofibroblast Cytotoxicity Activity of the following compound: C[C@@H](O[C@H]1OCCN(Cc2n[nH]c(=O)[nH]2)[C@H]1c1ccc(F)cc1)c1cc(C(F)(F)F)cc(C(F)(F)F)c1 [Cmpd 126, Aprepitant] ++++
